The values you see were collected from PubChem BioAssay AID618.

assay: inhibitors of MT1-MMP promoter transcription, cell-based, luciferase reporter, luminescence (AID 618); conditions: MT1-MMP promoter luciferase reporter cells;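 note: actives suppress MT1-MMP promoter-driven transcription so potencies describe inhibitors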
The whole screen tested about 87,000 compounds, of which about 540 (0.62%) were called active. The rule behind the calls is not given here. This is one part of a sample in which actives are shown more often than they occur. Results with a measured potency or affinity are listed apart.
Outcomes: active, inactive

Molecule | Assigned class
C/C=C/COC(=O)c1[nH]c2c(c1C)C(=O)CC(c1ccc(N(C)C)cc1)C2 (stereo not given) | inactive
C=CCOC(=O)c1[nH]c2c(c1C)C(=O)CC(c1ccco1)C2 (stereo not given) | active
C/C=C/COC(=O)c1[nH]c2c(c1C)C(=O)CC(c1ccco1)C2 (stereo not given) | active
CCCCC(=O)Nc1ccc2oc(-c3ccncc3)nc2c1 | inactive
Cc1c(C(=O)OCC2CCCO2)[nH]c2c1C(=O)CC(c1ccc(N(C)C)cc1)C2 (stereo not given) | inactive

----------
assay: inhibitors of MT1-MMP promoter transcription, cell-based, luciferase reporter, luminescence (AID 618); settings: MT1-MMP promoter luciferase reporter cells;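 note: actives suppress MT1-MMP promoter-driven transcription so potencies describe inhibitors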
The campaign covered roughly 87,000 compounds. About 540 (0.62%) were called active. No rule for the calls is given here. This is one part of a sample in which actives are shown more often than they occur. Measured potencies and affinities stand elsewhere.
Outcomes: active, inactive

Compound | Assigned class
Cc1ccc(NC(=O)c2ccccc2)s1 | active
CNc1cc(C)nc(-n2nc(C)cc2C)n1 | inactive
CCOC(=O)c1ccc2nc3c(cc2c1)CCS3 | inactive
O=C(O)Cc1ccc(NC(=O)c2ccc(NC(=O)c3ccco3)cc2)cc1 | inactive
CC(=O)c1ccc(Oc2cc(C)nc(-n3nc(C)cc3C)n2)cc1 | active
COC(=O)c1ccc(Oc2nc(C)cc(Oc3ccccc3)n2)cc1 | inactive
O=C(Nc1ccccc1C(=O)OCn1nnc2ccccc2c1=O)c1ccco1 | inactive
Cc1ccc(C(=O)Nc2ccc(CC(=O)O)cc2)o1 | inactive
CCOc1ccc(Nc2cc(C)nc(-n3nc(C)cc3C)n2)cc1 | inactive
COc1ccc(Nc2cc(C)nc(-n3nc(C)cc3C)n2)cc1 | active
CC(=O)c1ccc(Oc2cc(C)nc(NCc3ccccc3)n2)cc1 | inactive
Cc1cc(C(=O)NCCCN2CCN(C3CCCCC3)CC2)n(-c2ccccc2)n1 | inactive
CC(C)c1ccc2oc(-c3ccc(NC(=O)c4ncn[nH]4)cc3)nc2c1 | inactive
COc1ncnc2sc(-c3ccccc3)cc12 | inactive
CC(C)COc1ccc(-c2nnc(-c3ccco3)o2)cc1 | inactive
CC(=NCCCn1ccnc1)C1=C(O)c2ccccc2C1=O | inactive
COc1ccc(OC)c(Nc2nc(N)nc(-c3cc4ccccc4o3)n2)c1 | inactive
COC(=O)c1sc(S(=O)(=O)N2CCCCC2)c(C(=O)OC)c1C | inactive
O=C1C2CC=C(Cl)CC2C(=O)N1CCc1ccccc1 (centres undefined) | inactive
O=C1COc2ccc(C(=O)COC(=O)Cn3cnc4ccccc43)cc2N1 | inactive
Cc1cc(SCc2cc(=O)[nH]c3ccccc23)nc2ccccc12 | inactive
CCCOc1ccc(-c2nnc(-c3ccncc3)o2)cc1 | inactive
COc1ccc(-c2cc(=O)c3ccccc3s2)cc1 | inactive
COc1cc(OC)cc(-c2nc3cc(C)ccc3o2)c1 | inactive
CC1=NC(=O)C(N=Nc2cccc(O)c2)N1c1ccccc1 (centres undefined) | inactive
Cc1ccc(Oc2cc(-n3nc(C)cc3C)ncn2)cc1 | inactive
O=C(Nc1cccnc1)c1c(F)c(F)c(F)c(F)c1F | inactive
COC(=O)Cc1ccc(NC(=O)c2ccc(Br)o2)cc1 | inactive
CCN(C(=O)Cc1ccc(Br)cc1)C1CCCCC1 | inactive
CCOc1cccc(-c2nc3cc(C)ccc3o2)c1 | inactive
NCCCCCc1nnc(SCc2cccc(Cl)c2)o1 | inactive
Cc1sc2nc(SCC(=O)N3CCCC3)[nH]c(=O)c2c1C | inactive
O=C(CCCSc1nnc(-c2cccs2)n1CC1CCCO1)c1ccccc1 (centres undefined) | inactive
COc1ccc(-c2cc(C(F)(F)F)n3nc(C(=O)N4CCCCC4)cc3n2)cc1OC | inactive
CC(=O)Nc1cccc(Oc2ccc(-c3noc(C)n3)cc2)c1 | inactive
COC(=O)c1ccc(Oc2cc(C)nc(SC)n2)cc1 | inactive
CCOC(=O)c1c(N)sc(C(=O)Nc2ccc3c(c2)OCO3)c1C | active
O=C(NCc1ccco1)C(c1ccccc1)N(C(=O)Cc1cccs1)c1ccccc1 (centres undefined) | inactive
COc1ccc(NC(=O)CSc2nnc(-c3cccnc3)o2)cc1 | inactive
O=C(Nc1cnccn1)c1cccc(C(F)(F)F)c1 | inactive
CC(C)(C)c1ccc(C(=O)Nc2cnccn2)cc1 | active
O=C(Nc1cnccn1)c1ccncc1 | inactive
Cc1cc(NC(=O)CSc2nc3c(sc4ccccc43)c(=O)n2CCc2ccccc2)n[nH]1 | inactive
CC1=NC(=O)C(N=Nc2ccccc2)N1c1ccccc1 (centres undefined) | inactive
Cc1cc(C(C)(C)C)oc1C(=O)Nc1ccc(CC(=O)O)cc1 | inactive
CCOC(=O)C(NC(=O)CC(C)C)(Nc1cc(C)on1)C(F)(F)F (centres undefined) | inactive
O=C(CSc1ccccc1)Nc1ccncc1 | inactive
CCOC(=O)c1c(C)[nH]c(C(=O)Nc2ccc3c(c2)OCO3)c1C | inactive
CCOc1ccc(-c2nnc(-c3cccs3)o2)cc1 | inactive

----------
assay: inhibitors of MT1-MMP promoter transcription, cell-based, luciferase reporter, luminescence (AID 618); conditions: MT1-MMP promoter luciferase reporter cells;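 note: actives suppress MT1-MMP promoter-driven transcription so potencies describe inhibitors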
Hit rate of the full screen: of about 87,000 compounds, about 540 (0.62%) were called active. The rule behind the calls is not given here. The sample as a whole holds a higher share of actives than the screen did. Results with a measured potency or affinity are listed apart.
Classes used: active, inactive

Compound | Assigned class
O=C(CN1C(=O)C2C3C=CC(C3)C2C1=O)Nc1nc2ccccc2[nH]1 (centres undefined) | inactive
Cc1cccc(CS(=O)(=O)Cc2ccc(C(=O)O)o2)c1 | inactive
CCn1c(=O)n(CC(=O)NC2CCCC(C)C2C)c(=O)c2ccccc21 (centres undefined) | inactive
O=C(CCC1CCCC1)Nc1ccc(OCC(=O)N2CCOCC2)cc1 | inactive
O=C(NCC1COc2ccccc2O1)c1c[nH]c2ccc(S(=O)(=O)N3CCOCC3)cc2c1=O (centres undefined) | inactive
Nc1nonc1C(=Nc1ccccc1)NO | inactive
O=C(Nc1nc2ccc(Cl)cc2s1)c1ccco1 | inactive
CS(=O)(=O)c1ccc2nc(NC(=O)c3ccco3)sc2c1 | inactive
Cc1ccc(-n2nc(-c3ccc(N)cc3)cc2N)cc1 | inactive
O=S(=O)(NCCOCC(F)(F)C(F)F)c1ccc2oc3ccccc3c2c1 | inactive
CCOc1cc(-c2noc(N)c2C(=O)OC)cc(OCC)c1OCC | inactive
COc1ccc2sc(NC(C)=O)nc2c1 | inactive
COc1ccc(CCNC(=O)CSc2nnc(-c3ccc(F)cc3)o2)cc1OC | inactive
Cc1nc2ccccc2n1CC(=O)OCC(=O)Nc1ccc2c(c1)OCCO2 | inactive
Cc1nc(-c2cccc(NC(=O)c3cccs3)c2)cs1 | inactive
CCCN(CCC)S(=O)(=O)c1cccc(C(=O)Nc2ccc3c(c2)OCO3)c1 | inactive
CC(Oc1ccc(Cl)cc1Cl)C(=O)NCc1ccncc1 (centres undefined) | inactive
O=C(NCCCN=C1NS(=O)(=O)c2ccccc21)c1ccco1 | inactive
COCCCNC(=O)c1cccc(C(=O)NCCCOC)c1 | inactive
CC(=O)c1c(C)[nH]c(C(=O)Nc2cc(C)cc(C)c2)c1C | inactive
O=C(Nc1nnc(-c2ccco2)s1)c1ccccc1 | inactive
COc1ccc(S(=O)(=O)Cc2ccc(C(=O)N3CCc4ccccc4C3)o2)cc1 | inactive
CCOC(=O)C1CCN(Cc2ccccc2C)CC1 | inactive
CCCC1=Nc2cc(C(=O)NCCCOCC)ccc2Sc2ccccc21 | active
CCOc1ccc2nc(NC(=O)c3cnc(C)cn3)sc2c1 | inactive
CCCS(=O)(=O)C(=C1NCCO1)S(=O)(=O)CCC | inactive
Cc1nn(Cc2nc(-c3cccs3)no2)c(C)c1Br | inactive
Nc1ccc2nn(-c3cccc4ccccc34)nc2c1 | inactive
Cn1c(=O)c2c(nc(CN3CCN(c4ccccc4)CC3)n2CCCc2ccccc2)n(C)c1=O | inactive
CCOCCCNC(=O)c1ccc(OC)cc1 | inactive
CCC1(C)Cc2c(sc3nn[nH]c(=O)c23)CO1 (centres undefined) | inactive
CCCCCOC(=O)CSc1n[nH]c(=O)[nH]c1=O | inactive
c1nc(N2CCOCC2)c2[nH]cnc2n1 | inactive
CN(C1=NC(=O)C(CC(=O)Nc2ccc(Br)cc2)S1)c1ccc(O)cc1 (centres undefined) | inactive

----------
test: inhibitors of MT1-MMP promoter transcription, cell-based, luciferase reporter, luminescence (AID 618); conditions: MT1-MMP promoter luciferase reporter cells;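 note: actives suppress MT1-MMP promoter-driven transcription so potencies describe inhibitors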
The campaign covered roughly 87,000 compounds. About 540 (0.62%) were called active. How the calls were made is not given here. This is one part of a sample in which actives are shown more often than they occur. Measured potencies and affinities stand elsewhere.
Outcome codes: 1 = active, 0 = inactive

Compound | Assigned class
NS(=O)(=O)c1ccc(CNC(=O)C2CCCCC2)cc1 | 0
O=C(O)c1c2c(nc3ccc(F)cc13)CCC2 | 0
CCOc1ccc(Br)cc1S(=O)(=O)Nc1ccccc1N1CCOCC1 | 0
c1ccc2c(c1)CCN(c1nc3cc4c(cc3s1)OCCO4)C2 | 1
O=Cc1ccccc1OCCOc1ccccc1C=O | 0
O=C(NCC1CCCCC1)C1CCN(C(=O)NC2CCCCC2)CC1 | 0
CCOc1cc(N2CCOCC2)c(OCC)cc1NC(=O)CCS(=O)(=O)c1ccc(Cl)cc1 | 0
COc1ccc(N2CCN(C(=O)CCNS(=O)(=O)c3cccs3)CC2)cc1 | 0
NC(=O)CSc1nnnn1-c1ccc2c(c1)OCCO2 | 0
CCC(=O)NCC(c1cccs1)N1CCOCC1 (stereo not given) | 0
CCc1nc(OCC(=O)c2ccccc2)c(C#N)c2c1COC(C)(C)C2 | 0
CCCc1ccc(-c2cc(N)n[nH]2)cc1 | 0
Cc1cc(-c2csc(N)n2)c(C)n1C | 0
CCCNc1cc(C)oc(=O)c1C(=O)CCC | 0
CCC(C)NC(=O)Nc1ccc2c(c1)N(C)C(=O)c1ccccc1S2 (stereo not given) | 0
CCOc1cc(N2CCOCC2)c(OCC)cc1NS(=O)(=O)c1ccc(Cl)s1 | 1
c1ccc2sc(N3CCOCC3)nc2c1 | 0
CC(C)Cc1ccc(S(=O)(=O)N2CCOCC2)cc1 | 0
CCc1ccc(OCCNC(=O)c2ccc(S(=O)(=O)N(C)C)cc2)cc1 | 0
O=C(NCC(c1cccs1)N1CCOCC1)c1ccco1 (stereo not given) | 0
CCC1(c2ccccc2)NC(=O)N(CC(=O)Nc2cccc(C#N)c2)C1=O (stereo not given) | 0
O=C(NCC(c1cccs1)N1CCOCC1)c1ccc(Cl)s1 (stereo not given) | 1
COc1ccc(-c2noc(CCC(=O)NCCCN3CCC(Cc4ccccc4)CC3)n2)cc1 | 0
CCOc1ccccc1N1CC(C(=O)N2CCc3ccccc3C2)CC1=O (stereo not given) | 0
CCCCCCn1c(N2CCN(c3ccccc3)CC2)nc2c1c(=O)n(C)c(=O)n2C | 0
